From: PubChem BioAssay AID1445

target: Aminopeptidase N (Plasmodium falciparum (isolate 3D7)) (UniProt O96935); assay: malaria alanyl aminopeptidase activity blockers – biochemical, fluorogenic H-Leu-NHMec substrate, 1536-well (AID 1445); details: recombinant M1AAP, H-Leu-NHMec fluorogenic kinetic assay; at 30 µM, hits give high values unless noted;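 further: plate controls were DMSO full reaction for no effect and no enzyme background for full effect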
Sequence (O96935 whole entry, looked up): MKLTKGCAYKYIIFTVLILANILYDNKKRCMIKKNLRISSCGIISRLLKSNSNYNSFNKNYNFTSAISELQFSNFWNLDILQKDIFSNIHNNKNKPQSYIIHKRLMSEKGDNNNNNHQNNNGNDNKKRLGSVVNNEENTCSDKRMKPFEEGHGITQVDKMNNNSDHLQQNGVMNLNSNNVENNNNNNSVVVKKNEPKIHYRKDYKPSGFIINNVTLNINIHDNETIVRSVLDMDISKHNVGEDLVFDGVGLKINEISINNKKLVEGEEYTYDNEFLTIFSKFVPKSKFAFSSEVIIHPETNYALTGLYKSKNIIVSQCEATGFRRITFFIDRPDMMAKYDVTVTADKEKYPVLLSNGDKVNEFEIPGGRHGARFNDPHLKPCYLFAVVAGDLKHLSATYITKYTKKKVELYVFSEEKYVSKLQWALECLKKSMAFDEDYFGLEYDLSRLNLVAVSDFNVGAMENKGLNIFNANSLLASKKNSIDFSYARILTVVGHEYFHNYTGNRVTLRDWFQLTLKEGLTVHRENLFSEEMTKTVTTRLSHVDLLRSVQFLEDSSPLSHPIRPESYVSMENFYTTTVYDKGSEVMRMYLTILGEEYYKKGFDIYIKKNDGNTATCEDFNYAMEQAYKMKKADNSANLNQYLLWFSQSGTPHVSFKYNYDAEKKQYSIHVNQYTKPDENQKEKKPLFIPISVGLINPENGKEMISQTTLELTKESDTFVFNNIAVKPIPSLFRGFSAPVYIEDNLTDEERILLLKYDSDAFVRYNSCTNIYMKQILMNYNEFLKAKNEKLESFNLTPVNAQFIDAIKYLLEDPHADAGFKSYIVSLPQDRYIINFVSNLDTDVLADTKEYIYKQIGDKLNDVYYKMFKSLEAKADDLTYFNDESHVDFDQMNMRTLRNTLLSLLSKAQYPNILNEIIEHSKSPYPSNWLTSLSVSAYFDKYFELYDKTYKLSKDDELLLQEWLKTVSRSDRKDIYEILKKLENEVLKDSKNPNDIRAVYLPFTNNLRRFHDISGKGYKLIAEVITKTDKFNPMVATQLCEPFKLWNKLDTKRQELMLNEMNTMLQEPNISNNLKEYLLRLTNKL
About 910 (0.41%) of roughly 220,000 compounds were called active. Only a selection was taken, and actives are over-represented in it overall. Entries with a potency or affinity are not part of this list.
inhibition overview
Metric: inhibition (%)

Compound	Target desc	Scale unit	Quantitative result
O=C(c1cccs1)c1ccc(-c2cccs2)s1	Aminopeptidase N (Plasmodium falciparum (isolate 3D7)) (UniProt O96935)	%	15.2
Cc1ccc([N+](=O)[O-])cc1NC(=O)Nc1ccc(S(N)(=O)=O)cc1	Aminopeptidase N (Plasmodium falciparum (isolate 3D7)) (UniProt O96935)	%	-7.81
O=C(CSc1nnc(CCCN2C(=O)c3cccc4cccc(c34)C2=O)n1-c1ccccc1)N1CCCCC1	Aminopeptidase N (Plasmodium falciparum (isolate 3D7)) (UniProt O96935)	%	3.42
N/C(=N\OC(=O)CCCOc1ccccc1)c1ccc([N+](=O)[O-])cc1	Aminopeptidase N (Plasmodium falciparum (isolate 3D7)) (UniProt O96935)	%	6.54
Cn1c(=O)n(CCc2ccccc2)c(=O)c2c1ncn2Cc1ccccc1	Aminopeptidase N (Plasmodium falciparum (isolate 3D7)) (UniProt O96935)	%	2.43
COc1ccc(Oc2cc(C)c3cccc(C)c3n2)cc1	Aminopeptidase N (Plasmodium falciparum (isolate 3D7)) (UniProt O96935)	%	-2.89
O=C1N(c2ccccc2)C[C@@H]2C[C@@H](c3cccs3)N3CCC[C@@]123	Aminopeptidase N (Plasmodium falciparum (isolate 3D7)) (UniProt O96935)	%	2.6
NS(=O)(=O)c1ccc(CCNC(=O)c2ccc(S(=O)(=O)N3CCCCC3)cc2)cc1	Aminopeptidase N (Plasmodium falciparum (isolate 3D7)) (UniProt O96935)	%	15.2
c1ccc(Nc2nc(N3CCCCC3)nc(N3CCCCC3)n2)cc1	Aminopeptidase N (Plasmodium falciparum (isolate 3D7)) (UniProt O96935)	%	2.1
NS(=O)(=O)c1ccc(CCNC(=O)CN2CCCCC2)cc1	Aminopeptidase N (Plasmodium falciparum (isolate 3D7)) (UniProt O96935)	%	-1.82
CCOC(=O)C1CCCN(CC(=O)/C=C2/N(C)c3ccccc3C2(C)C)C1 (configuration not stated)	Aminopeptidase N (Plasmodium falciparum (isolate 3D7)) (UniProt O96935)	%	9.72
COc1nc(N=C(N)N)nc2ccc(C)cc12	Aminopeptidase N (Plasmodium falciparum (isolate 3D7)) (UniProt O96935)	%	20.7
CCN(C(=O)CSc1n[nH]c(-c2cccs2)n1)C1CCS(=O)(=O)C1 (configuration not stated)	Aminopeptidase N (Plasmodium falciparum (isolate 3D7)) (UniProt O96935)	%	-0.17
CCC(C)(C)n1nnnc1C(c1ccc2ncccc2c1)N1CCN(c2ccc(O)cc2)CC1 (configuration not stated)	Aminopeptidase N (Plasmodium falciparum (isolate 3D7)) (UniProt O96935)	%	4.2
Cc1ccc2nc(N=C(N)N)nc(C)c2c1	Aminopeptidase N (Plasmodium falciparum (isolate 3D7)) (UniProt O96935)	%	10.4
COc1cc(/C=C/c2nc(-c3ccccc3O)n[nH]2)cc(OC)c1OC	Aminopeptidase N (Plasmodium falciparum (isolate 3D7)) (UniProt O96935)	%	1.7
O=C(Cc1ccc(S(=O)(=O)N2CCOCC2)s1)NCC1CCCCC1	Aminopeptidase N (Plasmodium falciparum (isolate 3D7)) (UniProt O96935)	%	3.48
CC(C)OC(=O)CSc1ncnc2c1cnn2Cc1ccccc1	Aminopeptidase N (Plasmodium falciparum (isolate 3D7)) (UniProt O96935)	%	0.69
CCc1cc2c(-c3ccccc3)cc(=O)oc2c(CN2CCOCC2)c1O	Aminopeptidase N (Plasmodium falciparum (isolate 3D7)) (UniProt O96935)	%	9.72
O=C(CSc1nc2c(sc3ccccc32)c(=O)n1CCCN1CCOCC1)NCC1CCCO1 (configuration not stated)	Aminopeptidase N (Plasmodium falciparum (isolate 3D7)) (UniProt O96935)	%	1.22
CC(C)CCNC(=O)NC(=O)COC(=O)C1=COCCO1	Aminopeptidase N (Plasmodium falciparum (isolate 3D7)) (UniProt O96935)	%	-7.85
O=C(COC(=O)Cc1ccc(S(=O)(=O)N2CCOCC2)s1)NCCc1ccccc1	Aminopeptidase N (Plasmodium falciparum (isolate 3D7)) (UniProt O96935)	%	5.27
